Biological target: BRG-1 (Homo sapiens, UniProt P51532)
Construct: made in house; host or cells: High Five insect cells
Sequence (P51532 whole entry): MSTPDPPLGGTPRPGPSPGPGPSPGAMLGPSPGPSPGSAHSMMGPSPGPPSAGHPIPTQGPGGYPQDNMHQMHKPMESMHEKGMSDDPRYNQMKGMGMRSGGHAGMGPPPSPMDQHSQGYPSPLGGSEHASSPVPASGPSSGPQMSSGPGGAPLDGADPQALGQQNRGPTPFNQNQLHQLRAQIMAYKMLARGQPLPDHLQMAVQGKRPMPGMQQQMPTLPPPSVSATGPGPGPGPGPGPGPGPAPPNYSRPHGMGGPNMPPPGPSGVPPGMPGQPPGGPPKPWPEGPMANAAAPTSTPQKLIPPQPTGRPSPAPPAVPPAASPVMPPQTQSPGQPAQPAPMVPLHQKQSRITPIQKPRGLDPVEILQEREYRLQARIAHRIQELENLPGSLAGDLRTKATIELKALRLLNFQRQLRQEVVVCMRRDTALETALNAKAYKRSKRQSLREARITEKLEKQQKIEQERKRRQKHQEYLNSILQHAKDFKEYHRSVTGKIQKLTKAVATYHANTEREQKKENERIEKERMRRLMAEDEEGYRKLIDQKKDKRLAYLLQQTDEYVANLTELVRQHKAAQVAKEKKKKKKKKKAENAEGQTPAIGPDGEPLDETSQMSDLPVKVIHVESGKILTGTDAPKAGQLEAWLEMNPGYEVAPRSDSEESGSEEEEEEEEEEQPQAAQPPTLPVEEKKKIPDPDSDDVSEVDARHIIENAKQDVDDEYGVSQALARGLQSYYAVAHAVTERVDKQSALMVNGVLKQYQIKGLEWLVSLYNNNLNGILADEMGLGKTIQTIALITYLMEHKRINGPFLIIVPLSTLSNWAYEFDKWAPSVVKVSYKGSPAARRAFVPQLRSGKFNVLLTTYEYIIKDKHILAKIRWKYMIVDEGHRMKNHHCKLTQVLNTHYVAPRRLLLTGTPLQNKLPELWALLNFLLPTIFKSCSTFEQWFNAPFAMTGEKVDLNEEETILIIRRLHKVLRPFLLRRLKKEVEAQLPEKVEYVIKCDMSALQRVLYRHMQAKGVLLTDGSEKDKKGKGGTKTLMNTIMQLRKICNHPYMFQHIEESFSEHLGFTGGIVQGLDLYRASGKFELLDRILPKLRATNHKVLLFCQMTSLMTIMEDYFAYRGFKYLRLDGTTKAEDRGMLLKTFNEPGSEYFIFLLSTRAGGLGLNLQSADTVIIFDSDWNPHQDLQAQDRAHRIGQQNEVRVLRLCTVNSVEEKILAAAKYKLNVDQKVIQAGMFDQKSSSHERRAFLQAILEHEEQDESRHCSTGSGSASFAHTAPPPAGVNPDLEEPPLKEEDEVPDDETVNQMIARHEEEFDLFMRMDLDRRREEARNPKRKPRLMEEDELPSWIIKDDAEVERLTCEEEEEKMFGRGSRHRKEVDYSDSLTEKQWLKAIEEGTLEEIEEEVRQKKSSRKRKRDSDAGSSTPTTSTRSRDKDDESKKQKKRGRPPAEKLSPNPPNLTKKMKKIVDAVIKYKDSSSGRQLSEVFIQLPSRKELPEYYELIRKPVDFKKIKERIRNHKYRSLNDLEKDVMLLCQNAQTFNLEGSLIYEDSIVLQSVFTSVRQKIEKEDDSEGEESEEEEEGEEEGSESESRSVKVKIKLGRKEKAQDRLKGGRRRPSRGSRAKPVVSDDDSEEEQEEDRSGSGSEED
Experiment: ATPase catalytic activity of BRG-1, ADP-Glo in vitro biochemical assay
Details: ADP-Glo ATPase assay, 30 nM BRG-1, 400 μM ATP; read-out: BRG1 IC50
pIC50: −log10 of the molar value.
Entry flag: satisfied if pIC50 reaches 6; not satisfied if it does not.

Ask: Reported pIC50 at or above 6? CN(C)c1ccc2c(n1)OCCN2c1ccc2cnc(CNC(=O)c3ccc4c(c3)S(=O)(=O)CCOC4)cc2n1 [Compound 845]
Result: satisfied

Ask: Please give the result for CC1CS(=O)(=O)c2cc(C(=O)NCc3cc4nc(-c5cccc(N6C[C@@H](C)O[C@@H](C)C6)n5)ccc4cn3)ccc2CO1 (stereo partly drawn) [Compound 48] too.
Result: not satisfied

Ask: Please give the result for COc1ccc2c(c1)N(c1ccc3cnc(CNC(=O)c4ccc5c(c4)S(=O)(=O)CCOC5)cc3n1)CCO2 [Compound 776] too.
Result: satisfied

Ask: Please give the result for CC1OCCS(=O)(=O)c2cc(C(=O)NCc3cc4nc(-c5cccc(N6C[C@@H](C)O[C@@H](C)C6)n5)ccc4cn3)ccc21 (stereo partly drawn) [Compound 54] too.
Result: satisfied

Ask: Please give the result for C[C@@H]1C[C@H]1c1ccc2c(n1)N(c1ccc3cnc(CNC(=O)c4ccc5c(c4)S(=O)(=O)CCOC5)cc3n1)CCO2 [Compound 809] too.
Result: satisfied

* * *

Biological target: BRM (Homo sapiens)
Construct: made in house; host or cells: High Five insect cells
Experiment: ATPase catalytic activity of BRM, ADP-Glo in vitro biochemical assay
Conditions: ATPase catalytic activity, ADP-Glo; 30 nM BRM, 400 μM ATP
QUANTITY_NAME: pIC50
// returns pIC50 (minus log10 of molar concentration), number only

Ask: What value of pIC50 has been reported for the following compound? CO[C@@H](C)Cn1ccc2c(-c3ccc4cnc(CNC(=O)c5ccc6c(c5)S(=O)(=O)CCOC6)cc4n3)ccnc21 [Compound 449]
Result: 7.46

Ask: Please give the result for CN(CCOC1CC1)c1cccc(-c2ccc3cnc(CNC(=O)c4ccc5c(c4)S(=O)(=O)CCOC5)cc3n2)n1 [Compound 361] too.
Result: 8.13

Ask: Please give the result for COc1cc(C(F)F)ccc1-c1ccc2cnc(CNC(=O)c3ccc4c(c3)S(=O)(=O)[C@@H](C)COC4)cc2n1 [Compound 320] too.
Result: 7.92

Ask: Please give the result for COC1Cc2cccnc2N(c2ccc3cnc(CNC(=O)c4ccc5c(c4)S(=O)(=O)CCOC5)cc3n2)C1 (stereo not shown) [Compound 633] too.
Result: 5.65

* * *

Kindly state Ratio* for each of the entries shown.
Molecular target: BRM (Homo sapiens, UniProt P51531)
Construct: made in house; host or cells: High Five insect cells
Sequence (P51531 whole entry): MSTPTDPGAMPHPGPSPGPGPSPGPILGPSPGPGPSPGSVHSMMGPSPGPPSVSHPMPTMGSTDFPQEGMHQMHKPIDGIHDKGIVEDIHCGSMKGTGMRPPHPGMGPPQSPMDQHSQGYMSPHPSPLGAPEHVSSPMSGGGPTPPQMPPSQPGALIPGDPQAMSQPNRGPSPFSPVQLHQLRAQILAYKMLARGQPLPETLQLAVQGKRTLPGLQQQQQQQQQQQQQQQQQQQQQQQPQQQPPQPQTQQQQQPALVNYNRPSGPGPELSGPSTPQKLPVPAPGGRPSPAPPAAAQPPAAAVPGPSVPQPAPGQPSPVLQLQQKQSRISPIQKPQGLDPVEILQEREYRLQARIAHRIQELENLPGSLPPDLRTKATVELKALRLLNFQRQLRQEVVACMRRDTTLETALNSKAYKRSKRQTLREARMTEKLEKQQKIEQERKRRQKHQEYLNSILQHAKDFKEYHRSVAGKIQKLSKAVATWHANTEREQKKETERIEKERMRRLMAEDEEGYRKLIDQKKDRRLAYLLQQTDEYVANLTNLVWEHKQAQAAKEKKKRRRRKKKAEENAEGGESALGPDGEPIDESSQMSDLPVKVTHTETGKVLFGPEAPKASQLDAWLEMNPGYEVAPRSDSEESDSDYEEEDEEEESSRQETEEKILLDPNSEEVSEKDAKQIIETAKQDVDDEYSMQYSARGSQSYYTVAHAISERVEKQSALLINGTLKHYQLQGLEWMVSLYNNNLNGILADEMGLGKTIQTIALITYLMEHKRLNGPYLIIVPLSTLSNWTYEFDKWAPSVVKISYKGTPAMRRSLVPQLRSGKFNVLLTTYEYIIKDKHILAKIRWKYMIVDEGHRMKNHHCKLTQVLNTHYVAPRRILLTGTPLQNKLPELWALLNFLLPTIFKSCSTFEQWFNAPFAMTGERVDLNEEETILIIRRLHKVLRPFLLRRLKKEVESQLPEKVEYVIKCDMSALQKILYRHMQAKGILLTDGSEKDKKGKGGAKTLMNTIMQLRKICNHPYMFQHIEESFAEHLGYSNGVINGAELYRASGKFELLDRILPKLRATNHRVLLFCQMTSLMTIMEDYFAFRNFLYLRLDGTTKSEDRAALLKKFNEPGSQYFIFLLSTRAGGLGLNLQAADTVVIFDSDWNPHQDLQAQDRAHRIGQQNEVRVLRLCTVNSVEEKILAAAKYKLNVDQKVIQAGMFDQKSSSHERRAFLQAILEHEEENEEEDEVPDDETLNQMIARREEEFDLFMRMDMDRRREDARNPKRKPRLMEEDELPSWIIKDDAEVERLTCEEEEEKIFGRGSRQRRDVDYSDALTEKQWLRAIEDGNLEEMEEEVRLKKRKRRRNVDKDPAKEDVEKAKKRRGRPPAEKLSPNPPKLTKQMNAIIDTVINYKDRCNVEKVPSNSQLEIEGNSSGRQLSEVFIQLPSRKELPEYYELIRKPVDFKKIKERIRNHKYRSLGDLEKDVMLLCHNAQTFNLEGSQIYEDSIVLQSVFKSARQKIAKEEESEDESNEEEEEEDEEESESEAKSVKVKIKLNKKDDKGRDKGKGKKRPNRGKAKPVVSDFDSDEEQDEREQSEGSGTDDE
Test: ATPase catalytic activity of BRM, ADP-Glo in vitro biochemical assay
Settings: ratio BRG1 IC50 / BRM IC50
I'd appreciate a reply containing only the number, no unit.

Ask: What value of Ratio* has been reported for the following compound? O=C(NCc1cc2nc(N3CCOc4c3ncc(C3CC3)c4F)ccc2cn1)c1ccc2c(c1)S(=O)(=O)CCOC2 [Compound 827]
Result: 11.63

Ask: Please give the result for O=C(NCc1cc2nc(-c3ccc4c(n3)CN(C3CC3)CC4)ccc2cn1)c1ccc2c(c1)S(=O)(=O)CCOC2 [Compound 788] too.
Result: 6.69

Ask: Please give the result for O=C(NCc1cc2nc(N3CCOc4c3cnc(C3CC3)c4F)ccc2cn1)c1ccc2c(c1)S(=O)(=O)CCOC2 [Compound 813] too.
Result: 12.52

Ask: Please give the result for O=C(NCc1cc2nc(N3CCc4cc(F)cnc43)ccc2cn1)c1ccc2c(c1)S(=O)(=O)CCOC2 [Compound 727] too.
Result: 11.84

Ask: Please give the result for O=C(NCc1cc2cc(N3CCOc4ccc(C(F)F)nc43)ccc2cn1)c1ccc2c(c1)S(=O)(=O)CCOC2 [Compound 799] too.
Result: 26.04

Ask: Please give the result for O=C(NCc1cc2nc(N3CCCc4cnc(C5CC5)nc43)ccc2cn1)c1ccc2c(c1)S(=O)(=O)CCOC2 [Compound 780] too.
Result: 17.78

Ask: Please give the result for COc1ccc2c(c1F)N(c1ccc3cnc(CNC(=O)c4ccc5c(c4)S(=O)(=O)CCOC5)cc3n1)CCO2 [Compound 774] too.
Result: 14.44
